Values compiled from patent US7163941B2.

- ASSAY_SYSTEM: Lck (p56^lck, active) (Homo sapiens, UniProt P06239)
- Sequence (P06239 whole entry, species assumed): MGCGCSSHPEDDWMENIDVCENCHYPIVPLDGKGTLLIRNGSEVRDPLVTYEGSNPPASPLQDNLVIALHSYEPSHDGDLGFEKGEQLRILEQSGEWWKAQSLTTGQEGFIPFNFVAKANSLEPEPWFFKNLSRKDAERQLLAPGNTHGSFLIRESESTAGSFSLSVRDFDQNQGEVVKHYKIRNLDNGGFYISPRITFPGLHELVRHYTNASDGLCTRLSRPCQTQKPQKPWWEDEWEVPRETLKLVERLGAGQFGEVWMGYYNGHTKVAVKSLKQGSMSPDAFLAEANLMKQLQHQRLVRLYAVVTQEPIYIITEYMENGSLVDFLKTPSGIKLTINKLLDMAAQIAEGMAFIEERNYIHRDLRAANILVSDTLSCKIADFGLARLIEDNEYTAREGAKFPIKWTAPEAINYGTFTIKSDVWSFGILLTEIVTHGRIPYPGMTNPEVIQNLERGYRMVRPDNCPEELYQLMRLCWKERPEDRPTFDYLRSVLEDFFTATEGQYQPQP
MEASURED_PROPERTY: IC50 (nM)

Use these answered entries as a reference point.
GIVEN_SMILES | IC50 (nM)
CN(C)CCNC(=O)c1nc2nc(Nc3ccc(N4CCOCC4)cc3)ncc2cc1-c1ccccc1Br | 12.1
NC(=O)c1nc2nc(Nc3ccc(S(N)(=O)=O)cc3)ncc2cc1-c1ccccc1Br | 73.8
N#Cc1nc2nc(Nc3ccc(N4CCOCC4)cc3)ncc2cc1-c1ccccc1Br | 20.1
CNCCNC(=O)c1nc2nc(Nc3ccc(N4CCOCC4)cc3)ncc2cc1-c1ccccc1Br | 2.5
NS(=O)(=O)CCNC(=O)c1nc2nc(Nc3ccc4c(c3)S(=O)(=O)CCO4)ncc2cc1-c1ccccc1Br | 232

1 = CS(=O)(=O)NCCNC(=O)c1nc2nc(Nc3ccc(OCCO)cc3)ncc2cc1-c1ccccc1Br
2 = CN(C)CC(C)(C)CNC(=O)c1nc2nc(Nc3ccc(F)cc3)ncc2cc1-c1ccccc1Br
3 = CN(C)CC(=O)NNC(=O)c1nc2nc(Nc3ccc(F)cc3)ncc2cc1-c1ccccc1Br
Input: Rank the 3 molecules: largest IC50 first, smallest last. Output spec: a listing of the labels in the requested order.
Output: 2, 3, 1

###

- ASSAY_SYSTEM: Src (p60^c-src, partially purified) (Homo sapiens, UniProt P12931)
- Sequence (P12931 whole entry, species assumed): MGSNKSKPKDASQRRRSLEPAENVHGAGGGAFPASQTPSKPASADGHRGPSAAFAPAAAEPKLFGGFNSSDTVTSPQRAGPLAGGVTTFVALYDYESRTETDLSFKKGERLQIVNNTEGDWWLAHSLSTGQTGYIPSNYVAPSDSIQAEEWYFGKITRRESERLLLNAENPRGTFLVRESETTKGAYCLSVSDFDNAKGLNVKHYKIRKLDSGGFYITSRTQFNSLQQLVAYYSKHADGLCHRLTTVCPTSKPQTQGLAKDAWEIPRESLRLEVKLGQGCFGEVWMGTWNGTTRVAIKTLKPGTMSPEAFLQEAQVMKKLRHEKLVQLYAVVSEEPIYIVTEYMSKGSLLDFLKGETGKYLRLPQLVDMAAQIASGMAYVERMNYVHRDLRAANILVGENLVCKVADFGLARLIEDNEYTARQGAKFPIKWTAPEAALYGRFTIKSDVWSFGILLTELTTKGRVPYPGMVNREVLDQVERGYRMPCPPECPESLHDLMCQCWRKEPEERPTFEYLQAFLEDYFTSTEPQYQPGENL
MEASURED_PROPERTY: IC50 (µM)

Record excerpt, results attached:
COMPOUND | ASSAY_SYSTEM | UNIT_TEXT | IC50
CCN(CC)CCOc1ccc(Nc2ncc3cc(-c4ccccc4Br)c(C#N)nc3n2)cc1 | Src (p60^c-src, partially purified) (Homo sapiens, UniProt P12931) | µM | 0.0018
O=C(NCCc1cnc[nH]1)c1nc2nc(Nc3ccc(F)cc3)ncc2cc1-c1ccccc1Br | Src (p60^c-src, partially purified) (Homo sapiens, UniProt P12931) | µM | 0.0243
CN(C)CCNC(=O)c1nc2nc(Nc3ccc(F)cc3)ncc2cc1-c1ccccc1Br | Src (p60^c-src, partially purified) (Homo sapiens, UniProt P12931) | µM | 0.0341
CS(=O)(=O)NCCNC(=O)c1nc2nc(Nc3ccc(N4CCOCC4)cc3)ncc2cc1-c1ccccc1Br | Src (p60^c-src, partially purified) (Homo sapiens, UniProt P12931) | µM | 0.0004
O=C(NCCO)c1nc2nc(Nc3ccc(F)cc3)ncc2cc1-c1ccccc1Br | Src (p60^c-src, partially purified) (Homo sapiens, UniProt P12931) | µM | 0.0215
O=C(NCCO)c1nc2nc(Nc3cccc(CO)c3)ncc2cc1-c1ccccc1Br | Src (p60^c-src, partially purified) (Homo sapiens, UniProt P12931) | µM | 0.0309
O=C(N[C@@H]1CCNC1)c1nc2nc(Nc3ccc(F)cc3)ncc2cc1-c1ccccc1Br | Src (p60^c-src, partially purified) (Homo sapiens, UniProt P12931) | µM | 0.103
O=C(NC[C@H]1CCCN1)c1nc2nc(Nc3ccc(F)cc3)ncc2cc1-c1ccccc1Br | Src (p60^c-src, partially purified) (Homo sapiens, UniProt P12931) | µM | 0.0021
CN(C)CCNC(=O)c1nc2nc(Nc3ccc(N4CCOCC4)cc3)ncc2cc1-c1ccccc1Br | Src (p60^c-src, partially purified) (Homo sapiens, UniProt P12931) | µM | 0.0009
O=C(NC1CCNCC1)c1nc2nc(Nc3ccc(N4CCOCC4)cc3)ncc2cc1-c1ccccc1Br | Src (p60^c-src, partially purified) (Homo sapiens, UniProt P12931) | µM | 0.0107

A = CC(CN(C)C)NC(=O)c1nc2nc(Nc3ccc(F)cc3)ncc2cc1-c1ccccc1Br (stereo not drawn)
B = CN1CCC(NC(=O)c2nc3nc(Nc4ccc(F)cc4)ncc3cc2-c2ccccc2Br)CC1
C = O=C(N[C@H]1CCCNC1)c1nc2nc(Nc3ccc(F)cc3)ncc2cc1-c1ccccc1Br
D = CS(=O)(=O)NCCNC(=O)c1nc2nc(Nc3cccc(NS(C)(=O)=O)c3)ncc2cc1-c1ccccc1Br
Input: // ascending sort on recorded IC50 Form field (ranking): labels in requested order.
Output: D, C, B, A

1 = O=C(NCCN1CCNC1=O)c1nc2nc(Nc3ccc(F)cc3)ncc2cc1-c1ccccc1Br
2 = CNCCNC(=O)c1nc2nc(Nc3ccc(F)cc3)ncc2cc1-c1ccccc1Br
3 = O=C(NC1CCNCC1)c1nc2nc(Nc3ccc(F)cc3)ncc2cc1-c1ccccc1Br
4 = CN(C)CCCNC(=O)c1nc2nc(Nc3ccc(F)cc3)ncc2cc1-c1ccccc1Br
Input: Arrange the 4 compounds by rising IC50, starting with the smallest. Please list each label once, in the requested order.
Output: 2, 4, 3, 1
(2: 0.0062 µM, 4: 0.0217 µM, 3: 0.0661 µM, 1: 0.157 µM)

A = O=C(NCCCN1CCCC1=O)c1nc2nc(Nc3ccc(F)cc3)ncc2cc1-c1ccccc1Br
B = COCCNC(=O)c1nc2nc(Nc3ccc(F)cc3)ncc2cc1-c1ccccc1Br
Input: Which value of IC50 is greater, the one for A or the one for B ? Refer to your chosen item by its label in the answer.
Output: A

I = CS(=O)(=O)NCCNC(=O)c1nc2nc(Nc3ccc4c(c3)OC(CO)CO4)ncc2cc1-c1ccccc1Br (stereo not drawn)
II = NC(=O)c1c[nH]nc1NC(=O)c1nc2nc(Nc3ccc(F)cc3)ncc2cc1-c1ccccc1Br
Input: Response body: label of entry with the larger IC50; valid values I , II . // respond with label for picked entry
Output: II

###

What follows is a collection of IC50 values obtained with Lck (p56^lck, active) (Homo sapiens).
MEASURED_PROPERTY: IC50 (nM)

Some compounds with known IC50 results, for comparison:
COMPOUND | UNIT_TEXT | IC50
CN1CCCC1CCNC(=O)c1nc2nc(Nc3ccc(F)cc3)ncc2cc1-c1ccccc1Br (centres unmarked) [Example 3-33] | nM | 96.9
CNS(=O)(=O)Cc1cccc(Nc2ncc3cc(-c4ccccc4Br)c(C(N)=O)nc3n2)c1 [Example 3-5] | nM | 110
O=C(N[C@@H]1CCNC1)c1nc2nc(Nc3ccc(F)cc3)ncc2cc1-c1ccccc1Br [Example 3-29] | nM | 429
COCCNC(=O)c1nc2nc(Nc3ccc(F)cc3)ncc2cc1-c1ccccc1Br [Example 3-13] | nM | 360
O=C(NCCCO)c1nc2nc(Nc3ccc(F)cc3)ncc2cc1-c1ccccc1Br [Example 3-38] | nM | 456
CN(C)C(=O)CNC(=O)c1nc2nc(Nc3ccc(F)cc3)ncc2cc1-c1ccccc1Br [Example 3-30] | nM | 151
NC(=O)c1nc2nc(Nc3ccc(N4CCOCC4)cc3)ncc2cc1-c1ccccc1Br [Example 3-1] | nM | 23
O=C(NCC[S+]([O-])CCO)c1nc2nc(Nc3ccc(F)cc3)ncc2cc1-c1ccccc1Br (centres unmarked) [Example 3-43] | nM | 809
CS(=O)(=O)NCCNC(=O)c1nc2nc(Nc3ccc(N4CCOCC4)cc3)ncc2cc1-c1ccccc1Br [Example 7-15] | nM | 11.4
O=C(NCCc1cnc[nH]1)c1nc2nc(Nc3ccc(F)cc3)ncc2cc1-c1ccccc1Br [Example 3-39] | nM | 114

A = O=C(NC1CCNCC1)c1nc2nc(Nc3ccc(N4CCOCC4)cc3)ncc2cc1-c1ccccc1Br [Example 1]
B = COc1cccc(Nc2ncc3cc(-c4ccccc4Br)c(C(=O)NCCNS(C)(=O)=O)nc3n2)c1 [Example 7-20]
Input: Between A and B , whose measured IC50 reads higher? Which one? Tell me its label.
Output: A
(A: 60.1 nM, B: 11.1 nM)

1 = CN1CCN(c2ccc(Nc3ncc4cc(-c5ccccc5Br)c(C(=O)NCCNS(C)(=O)=O)nc4n3)cc2)CC1 [Example 7-19]
2 = CS(=O)(=O)NCCNC(=O)c1nc2nc(Nc3cccc(SCCO)c3)ncc2cc1-c1ccccc1Br [Example 7-23]
Input: Lower value of IC50 belongs to which: 1 or 2 ? Give the label of your selection.
Output: 1

A = Cc1cc(CNC(=O)c2nc3nc(Nc4ccc(F)cc4)ncc3cc2-c2ccccc2Br)nn1C [Example 3-41]
B = O=C(NCCN1CCOCC1)c1nc2nc(Nc3ccc(F)cc3)ncc2cc1-c1ccccc1Br [Example 3-22]
C = O=C(NCCCN1CCOCC1)c1nc2nc(Nc3ccc(F)cc3)ncc2cc1-c1ccccc1Br [Example 3-32]
D = CS(=O)(=O)NCCNC(=O)c1nc2nc(Nc3ccc4c(c3)S(=O)(=O)CCO4)ncc2cc1-c1ccccc1Br [Example 7-22]
Input: hey, can you rank those compounds up there by IC50? biggest number first please Response format: the labels, sorted as the prompt asks.
Output: B, C, A, D
(B: 662 nM, C: 195 nM, A: 126 nM, D: 37 nM)

I = CC(CN(C)C)NC(=O)c1nc2nc(Nc3ccc(F)cc3)ncc2cc1-c1ccccc1Br (centres unmarked) [Example 3-23]
II = NC(=O)NNC(=O)c1nc2nc(Nc3ccc(F)cc3)ncc2cc1-c1ccccc1Br [Example 3-18]
III = NC(=O)c1nc2nc(Nc3cccc(S(=O)(=O)CCO)c3)ncc2cc1-c1ccccc1Br [Example 3-6]
IV = CS(=O)(=O)NCCNC(=O)c1nc2nc(Nc3ccc4c(c3)OC(CO)CO4)ncc2cc1-c1ccccc1Br (centres unmarked) [Example 7-24]
Input: Rank items: key IC50, increasing. Would you mind listing the labels in the order asked for?
Output: IV, II, III, I
(IV: 9 nM, II: 68.4 nM, III: 145 nM, I: 573 nM)

1 = NC(=O)c1c[nH]nc1NC(=O)c1nc2nc(Nc3ccc(F)cc3)ncc2cc1-c1ccccc1Br [Example 3-42]
2 = NS(=O)(=O)CCNC(=O)c1nc2nc(Nc3ccc(F)cc3)ncc2cc1-c1ccccc1Br [Example 3-37]
Input: Return label of the item with the larger IC50. Candidates: 1 , 2 . Choose, then provide that item's label.
Output: 1
(1: 694 nM, 2: 189 nM)
